// provenance: ChEMBL document CHEMBL1201862

Answer each item with its documented GI50.
Test system: PC-3
Measurement notes: NCI tumour cell line growth inhibition, 48 h
Active and inactive are the calls of the source. No stated cut-off is given here; in the data, active = GI50 up to about 1.1 µM and inactive = higher.

-- ask Annotate the molecule "CCOC(=O)[C@@H]1C[C@@H]1c1ccc(O)c(O)c1" with its measured GI50.
-- reply 12.7 µM (inactive)

-- ask Return value of GI50 for input NC(CCC(=O)c1ccccn1)C(=O)O (configuration not stated) , no commentary.
-- reply > 100 µM (inactive)

-- ask Give GI50 for "C=CCN1C(=O)/C(=C/c2ccccc2)N=C1SC/C=C/C"
-- reply 22.3 µM (inactive)

-- ask Supply recorded GI50 for COC(=O)C(Cc1ccccc1)NP(=O)(O)OCC1OC(n2cc(Br)c(=O)[nH]c2=O)CC1O (configuration not stated) here.
-- reply > 100 µM (inactive)

-- ask Please supply the value of reported GI50 for the item "Cc1cc(C)c([S@@](=O)O[C@@H]2[C@H]3OC(C)(C)O[C@H]3O[C@@H]2[C@H]2COC(C)(C)O2)c(C)c1"
-- reply 19.9 µM (inactive)

-- ask Give GI50 for COc1ccc2c(c1)N(C(C)=O)CN1C(=O)CCC21 (configuration not stated)
-- reply > 100 µM (inactive)

-- ask Please give the documented GI50 of "C=C(Br)C[N+]12CN3CN(CN(C3)C1)C2"
-- reply > 100 µM (inactive)

-- ask Output GI50 of O=C1CC(c2ccccc2)[S+]([O-])c2ccccc2N1 (configuration not stated)
-- reply > 100 µM (inactive)

-- ask In one line, give reported GI50 of the entry CC[S+]([O-])c1c2cc(OC)ccc2nc2ccc(OC)cc12 (configuration not stated) .
-- reply 10.7 µM (inactive)

-- ask Note GI50 for the molecule shown: O=C1CSC(c2ccccc2O)N1c1ccc(Oc2ccc(Cl)cc2)c(Cl)c1 (configuration not stated)
-- reply 22.3 µM (inactive)

-- ask Note GI50 for the molecule shown: "O=C(/C=C/c1ccc(O)cc1)c1ccc2c(c1)OCO2"
-- reply 24.6 µM (inactive)

-- ask Fill in GI50 for record "CC(=O)Nc1ccc(-c2nc3ccccc3s2)cc1Cl"
-- reply > 100 µM (inactive)

###

Test system: Malme-3M
Measurement notes: NCI tumour cell line growth inhibition, 48 h
Activity calls are given as the source filed them. No stated cut-off is given here; in the data, active = GI50 up to about 1.1 µM and inactive = higher.
Reported property: GI50

-- ask Return GI50 for the following compound: "CC(=O)c1sc(Nc2ccc(Cl)c(Cl)c2)nc1C"
-- reply > 100 µM (inactive)

-- ask Find the measured GI50 of "COc1cc(/C=N/n2c(-c3ccccc3)nn(C(C)=O)c2=O)cc(OC)c1OC" and report it.
-- reply 5.36 µM (inactive)

-- ask Name the recorded GI50 of the item CN(C)CC1CCC/C(=C\c2ccc(OC(=O)/C=C/c3ccccc3)cc2)C1=O (stereo unspecified) in your answer.
-- reply 2.2 µM (inactive)

-- ask Retrieve GI50 measured for COc1ccc(C(=O)C2=NON3OC23C(=O)c2ccc(OC)cc2)cc1 (stereo unspecified) and print it.
-- reply 12.9 µM (inactive)

-- ask Supply recorded GI50 for COc1ccc(-n2c(C)nc3ccc(NC4OC(CO)C(O)C(O)C4O)cc3c2=O)cc1 (stereo unspecified) here.
-- reply > 100 µM (inactive)

-- ask Report measured GI50; entry is "Nc1cc2nc(O)c(O)nc2cc1N"
-- reply > 100 µM (inactive)

-- ask # return recorded GI50 for input "CCCCOC(=O)NC(=O)c1cn(CCCOC(=O)NCCCCCCNC(=O)OCCCn2cc(C(=O)NC(=O)OCCCC)c(=O)[nH]c2=O)c(=O)[nH]c1=O"
-- reply > 100 µM (inactive)

-- ask Name the recorded GI50 of the compound listed here: O=C(CC(C(=O)c1ccsc1)c1cccs1)c1ccsc1 (stereo unspecified)
-- reply 56.8 µM (inactive)

-- ask Supply GI50 value. Item: "COc1ccc(NC(=O)/C(Cc2nc3ccccc3nc2O)=N\O)c(OC)c1"
-- reply > 100 µM (inactive)

-- ask Output GI50 of N#Cc1cnc(N)nc1NCC1(CO)CC(CCc2ccccc2)C1 (stereo unspecified)
-- reply > 100 µM (inactive)

-- ask Kindly indicate its recorded GI50. Item: "COC(=O)CCC(=O)c1ccc2c(c1)CC1(C2)Cc2ccc(C(=O)CCC(=O)OC)cc2C1"
-- reply > 100 µM (inactive)

-- ask State its GI50: O=C1CC(c2ccccc2)[S+]([O-])c2ccccc2N1 (stereo unspecified)
-- reply > 100 µM (inactive)

-- ask Answer with reported GI50 of "O=C(Nc1ccc(Br)c2ccccc12)c1ccc2ccccc2c1O"
-- reply 1.36 µM (inactive)

-- ask Check the records and state GI50 for COc1ccc(NC(=O)CC(=O)N2N=C(N3CCCCC3)CC2c2ccccc2)cc1 (stereo unspecified)
-- reply > 100 µM (inactive)

-- ask Dear colleague, please send me the reported GI50 for "Cc1ccc(N(C=O)c2c([N+](=O)[O-])cc([N+](=O)[O-])c3c2=[N+]([O-])CN=3)cc1" when you can.
-- reply 20.3 µM (inactive)

-- ask Please report GI50 for the following compound: "Fc1c(F)c(F)c(CSc2nc3ccccc3[nH]2)c(F)c1F"
-- reply > 100 µM (inactive)

-- ask Return GI50 (reported value) for this compound: "CNC(=S)/C(=N\Nc1[nH]cnc1C(N)=O)C(N)=S"
-- reply 1.1 µM (active)

-- ask Give the value of GI50 reported for the following: "NS(=O)(=O)c1ccc(N=C2C(=O)Nc3ccccc32)cc1"
-- reply > 100 µM (inactive)

-- ask Hello, please tell me recorded GI50 for this one: "Cc1cc(/C=C/c2cc[n+](C)c3ccccc23)c(O)c2ncccc12"
-- reply 2.8 µM (inactive)

-- ask Specify GI50 for COC(=O)CCC(C)C1CCC2C3C(C[C@H](OC(C)=O)[C@]12C)[C@@]1(C)CCC2(C[C@H]1C[C@H]3OC(C)=O)OOC1(CC[C@]3(C)C4C[C@H](OC(C)=O)[C@]5(C)C(C(C)CCC(=O)OC)CCC5C4[C@H](OC(C)=O)C[C@@H]3C1)OO2 (stereo partly specified) and stop.
-- reply > 100 µM (inactive)

-- ask Assign GI50 to the following record: "Nc1ccc(/C=C/c2ccnc3ccccc23)cc1"
-- reply 30.3 µM (inactive)
